Molecular target: ALK (Fl 174L)-EML4 (Homo sapiens, UniProt Q9UM73, F1174L)
Construct: EML4 part (fusion partner)
Sequence (Q9UM73 1058-1620 F1174L limits assumed): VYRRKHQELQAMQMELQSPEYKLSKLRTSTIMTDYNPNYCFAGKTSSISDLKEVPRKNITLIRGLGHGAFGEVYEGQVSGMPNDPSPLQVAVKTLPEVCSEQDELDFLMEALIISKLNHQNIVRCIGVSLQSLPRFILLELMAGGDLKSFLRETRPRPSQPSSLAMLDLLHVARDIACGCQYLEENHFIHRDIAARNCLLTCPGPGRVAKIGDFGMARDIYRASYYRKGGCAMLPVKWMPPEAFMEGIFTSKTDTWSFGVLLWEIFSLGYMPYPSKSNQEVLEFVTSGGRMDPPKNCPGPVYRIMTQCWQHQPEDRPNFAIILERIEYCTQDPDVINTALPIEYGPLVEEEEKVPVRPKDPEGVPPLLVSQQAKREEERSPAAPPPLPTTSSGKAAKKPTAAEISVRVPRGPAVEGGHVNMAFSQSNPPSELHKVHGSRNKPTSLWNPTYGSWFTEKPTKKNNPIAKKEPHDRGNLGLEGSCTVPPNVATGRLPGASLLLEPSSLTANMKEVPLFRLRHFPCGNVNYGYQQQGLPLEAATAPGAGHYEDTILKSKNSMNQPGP
Assay: Biochemical kinase activity (Reaction Biology Corp)
Where a name gives a salt, the structure may show the parent alone.
observed_property: pIC50
When answering, recall that pIC50 equals minus log10 of the concentration in mol/L, and write that number alone.

Query string: Give the measured pIC50 of C[C@@H]1CN(C(=O)c2ccc(NC(=O)c3cc(O[C@H](C)c4c(Cl)ccc(F)c4Cl)c(N)nn3)cc2)C[C@H](C)N1 [compound of Formula I, hydrochloride] .
Result string: 9.28

---

Target: ALK (R1275Q) (Homo sapiens, UniProt Q9UM73, R1275Q)
Sequence (Q9UM73 19-1620 R1275Q): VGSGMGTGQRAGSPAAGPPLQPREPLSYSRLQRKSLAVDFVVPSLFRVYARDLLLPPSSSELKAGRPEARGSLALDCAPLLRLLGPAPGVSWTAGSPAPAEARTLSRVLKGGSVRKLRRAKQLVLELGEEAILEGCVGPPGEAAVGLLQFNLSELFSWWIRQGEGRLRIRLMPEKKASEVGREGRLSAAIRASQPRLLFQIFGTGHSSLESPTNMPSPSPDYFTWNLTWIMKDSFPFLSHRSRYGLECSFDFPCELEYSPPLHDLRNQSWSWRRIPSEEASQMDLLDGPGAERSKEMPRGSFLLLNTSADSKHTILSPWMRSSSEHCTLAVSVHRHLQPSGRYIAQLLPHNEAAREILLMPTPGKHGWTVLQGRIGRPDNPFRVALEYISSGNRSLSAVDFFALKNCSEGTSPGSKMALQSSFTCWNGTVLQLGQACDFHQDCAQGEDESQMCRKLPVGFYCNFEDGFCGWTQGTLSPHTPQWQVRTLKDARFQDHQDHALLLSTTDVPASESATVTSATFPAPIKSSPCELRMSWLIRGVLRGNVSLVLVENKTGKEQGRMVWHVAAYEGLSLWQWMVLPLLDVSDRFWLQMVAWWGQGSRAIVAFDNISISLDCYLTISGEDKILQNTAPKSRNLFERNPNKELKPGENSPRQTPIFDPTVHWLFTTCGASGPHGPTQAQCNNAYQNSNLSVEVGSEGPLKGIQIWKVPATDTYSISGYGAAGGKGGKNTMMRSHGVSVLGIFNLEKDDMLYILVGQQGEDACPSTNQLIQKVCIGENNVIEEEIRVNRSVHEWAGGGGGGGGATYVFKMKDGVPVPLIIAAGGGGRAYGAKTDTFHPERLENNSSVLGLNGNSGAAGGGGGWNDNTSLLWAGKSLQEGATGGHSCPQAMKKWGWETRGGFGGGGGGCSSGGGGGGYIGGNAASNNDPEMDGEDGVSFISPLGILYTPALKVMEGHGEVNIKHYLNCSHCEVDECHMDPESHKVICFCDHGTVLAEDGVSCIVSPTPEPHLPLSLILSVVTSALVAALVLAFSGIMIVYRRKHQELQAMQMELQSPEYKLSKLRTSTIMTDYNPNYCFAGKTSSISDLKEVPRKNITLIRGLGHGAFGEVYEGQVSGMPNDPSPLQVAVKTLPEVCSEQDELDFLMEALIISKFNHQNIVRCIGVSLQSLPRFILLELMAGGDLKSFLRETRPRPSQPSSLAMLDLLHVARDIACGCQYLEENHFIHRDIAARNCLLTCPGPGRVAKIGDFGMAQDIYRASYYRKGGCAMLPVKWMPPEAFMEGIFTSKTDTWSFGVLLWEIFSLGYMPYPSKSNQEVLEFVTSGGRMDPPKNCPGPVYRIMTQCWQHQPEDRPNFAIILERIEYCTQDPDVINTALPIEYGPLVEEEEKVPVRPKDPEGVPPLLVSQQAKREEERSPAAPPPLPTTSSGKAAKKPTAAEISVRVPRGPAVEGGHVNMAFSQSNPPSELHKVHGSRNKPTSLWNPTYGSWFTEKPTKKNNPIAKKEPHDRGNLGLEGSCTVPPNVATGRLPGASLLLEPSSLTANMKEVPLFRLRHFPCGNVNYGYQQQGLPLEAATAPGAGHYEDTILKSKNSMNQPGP
Test: Biochemical kinase activity (Reaction Biology Corp)
Counter-ions that a name gives are not always drawn.
observed_property: pIC50
When answering, recall that pIC50 equals minus log10 of the concentration in mol/L, and write that number alone.

Query string: Give the measured pIC50 of C[C@@H]1CN(C(=O)c2ccc(NC(=O)c3cc(O[C@H](C)c4c(Cl)ccc(F)c4Cl)c(N)nn3)cc2)C[C@H](C)N1 [compound of Formula I, hydrochloride] .
Result string: 8.97

---

Biological target: TRKA-TPR (Homo sapiens)
Sequence (P04629 510-796 limits assumed): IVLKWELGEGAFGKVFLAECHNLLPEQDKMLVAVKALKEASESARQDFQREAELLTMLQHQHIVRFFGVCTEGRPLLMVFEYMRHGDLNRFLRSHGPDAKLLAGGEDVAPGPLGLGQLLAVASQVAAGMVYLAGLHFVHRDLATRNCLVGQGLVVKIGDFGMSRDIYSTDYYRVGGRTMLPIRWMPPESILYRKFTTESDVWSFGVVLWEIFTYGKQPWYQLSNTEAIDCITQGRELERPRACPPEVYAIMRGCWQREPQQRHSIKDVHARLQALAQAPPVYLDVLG
Counter-ions that a name gives are not always drawn.
observed_property: pIC50
When answering, recall that pIC50 equals minus log10 of the concentration in mol/L, and write that number alone.

Query string: TRKA-TPR (Homo sapiens) / pIC50 / C[C@@H]1CN(C(=O)c2ccc(NC(=O)c3cc(O[C@H](C)c4c(Cl)ccc(F)c4Cl)c(N)nn3)cc2)C[C@H](C)N1 [compound of Formula I, hydrochloride] : value?
Result string: 8.91

---

Target: EPHA2 (Homo sapiens)
Sequence (P29317 24-976): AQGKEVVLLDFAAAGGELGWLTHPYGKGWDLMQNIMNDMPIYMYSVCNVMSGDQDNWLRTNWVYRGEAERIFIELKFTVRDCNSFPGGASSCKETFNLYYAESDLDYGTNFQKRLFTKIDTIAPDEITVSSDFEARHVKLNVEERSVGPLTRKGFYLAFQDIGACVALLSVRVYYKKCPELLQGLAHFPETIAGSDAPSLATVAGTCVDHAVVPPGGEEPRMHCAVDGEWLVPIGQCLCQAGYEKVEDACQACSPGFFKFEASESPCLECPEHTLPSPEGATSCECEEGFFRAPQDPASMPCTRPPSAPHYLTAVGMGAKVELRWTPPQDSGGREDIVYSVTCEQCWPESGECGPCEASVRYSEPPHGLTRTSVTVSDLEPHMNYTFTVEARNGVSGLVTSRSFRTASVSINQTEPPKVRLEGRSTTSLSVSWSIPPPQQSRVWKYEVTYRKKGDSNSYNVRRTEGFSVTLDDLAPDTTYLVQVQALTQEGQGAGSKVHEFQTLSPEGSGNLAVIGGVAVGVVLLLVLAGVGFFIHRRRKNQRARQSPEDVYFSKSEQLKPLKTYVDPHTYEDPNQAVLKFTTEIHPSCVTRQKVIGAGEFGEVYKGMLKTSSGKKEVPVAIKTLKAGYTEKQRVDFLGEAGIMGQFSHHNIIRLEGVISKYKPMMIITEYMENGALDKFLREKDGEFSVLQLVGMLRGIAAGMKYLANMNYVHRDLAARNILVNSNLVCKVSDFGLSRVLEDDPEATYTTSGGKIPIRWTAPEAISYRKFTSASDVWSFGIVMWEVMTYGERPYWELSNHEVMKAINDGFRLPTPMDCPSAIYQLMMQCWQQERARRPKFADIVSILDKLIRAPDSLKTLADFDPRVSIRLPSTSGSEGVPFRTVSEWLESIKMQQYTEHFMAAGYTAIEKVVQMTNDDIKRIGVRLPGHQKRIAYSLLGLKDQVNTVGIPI
Where a name gives a salt, the structure may show the parent alone.
observed_property: IC50 (nM)
Provide the reading as a plain figure in nM.

Query string: EPHA2 (Homo sapiens) / IC50 / C[C@@H]1CN(C(=O)c2ccc(NC(=O)c3cc(O[C@H](C)c4c(Cl)ccc(F)c4Cl)c(N)nn3)cc2)C[C@H](C)N1 [compound of Formula I, hydrochloride] : value?
Result string: 1.14

---

Target: UniProt Q9UM73
Where a name gives a salt, the structure may show the parent alone.
observed_property: IC50 (nM)
Provide the reading as a plain figure in nM.

Query string: UniProt Q9UM73 / IC50 / C[C@@H]1CN(C(=O)c2ccc(NC(=O)c3cc(O[C@H](C)c4c(Cl)ccc(F)c4Cl)c(N)nn3)cc2)C[C@H](C)N1 [compound of Formula I, hydrochloride] : value?
Result string: 0.73

---

Target: ALK(L1196M) (Homo sapiens, UniProt Q9UM73, L1196M)
Test: Biochemical kinase activity (Reaction Biology Corp)
Protocol: Biochemical kinase activity of the compound as shown in formula I was tested by Reaction Biology Corp located in Malvern, Pa., USA. The testing rules is described in Nat Biotechnol.
Where a name gives a salt, the structure may show the parent alone.
observed_property: pIC50
When answering, recall that pIC50 equals minus log10 of the concentration in mol/L, and write that number alone.

Query string: Give the measured pIC50 of C[C@@H]1CN(C(=O)c2ccc(NC(=O)c3cc(O[C@H](C)c4c(Cl)ccc(F)c4Cl)c(N)nn3)cc2)C[C@H](C)N1 [compound of Formula I, hydrochloride] .
Result string: 9.49

---

Molecular target: TRKA-TPM3 (Homo sapiens, UniProt P04629)
Construct: fused on or other part: P06753 (Tropomyosin alpha-3 chain)
Sequence (P04629 510-796 limits assumed): as the sequence (P04629 510-796 limits assumed) above
Experiment: Biochemical kinase activity (Reaction Biology Corp)
Counter-ions that a name gives are not always drawn.
observed_property: IC50 (nM)
Provide the reading as a plain figure in nM.

Query string: Give the measured IC50 of C[C@@H]1CN(C(=O)c2ccc(NC(=O)c3cc(O[C@H](C)c4c(Cl)ccc(F)c4Cl)c(N)nn3)cc2)C[C@H](C)N1 [compound of Formula I, hydrochloride] .
Result string: 0.62

---

Molecular target: ALK (G1269S) (Homo sapiens, UniProt Q9UM73, G1269S)
Construct: purchased Reaction Biology Corp (contract testing)
Sequence (Q9UM73 19-1620 G1269S): as the sequence (Q9UM73 19-1620 R1275Q) above, with G1251S, Q1257R counted along it
Test: Biochemical kinase activity (Reaction Biology Corp)
Counter-ions that a name gives are not always drawn.
observed_property: pIC50
When answering, recall that pIC50 equals minus log10 of the concentration in mol/L, and write that number alone.

Query string: ALK (G1269S) (Homo sapiens, UniProt Q9UM73, G1269S) / pIC50 / C[C@@H]1CN(C(=O)c2ccc(NC(=O)c3cc(O[C@H](C)c4c(Cl)ccc(F)c4Cl)c(N)nn3)cc2)C[C@H](C)N1 [compound of Formula I, hydrochloride] : value?
Result string: 8.86

---

Biological target: ALK (G1269A) (Homo sapiens, UniProt Q9UM73, G1269A)
Sequence (Q9UM73 19-1620 G1269A): as the sequence (Q9UM73 19-1620 R1275Q) above, with G1251A, Q1257R counted along it
Assay: Biochemical kinase activity (Reaction Biology Corp)
Counter-ions that a name gives are not always drawn.
observed_property: pIC50
When answering, recall that pIC50 equals minus log10 of the concentration in mol/L, and write that number alone.

Query string: Give the measured pIC50 of C[C@@H]1CN(C(=O)c2ccc(NC(=O)c3cc(O[C@H](C)c4c(Cl)ccc(F)c4Cl)c(N)nn3)cc2)C[C@H](C)N1 [compound of Formula I, hydrochloride] .
Result string: 8.94

---

Target: NEK1 (Homo sapiens)
Sequence (Q96PY6 1-1258): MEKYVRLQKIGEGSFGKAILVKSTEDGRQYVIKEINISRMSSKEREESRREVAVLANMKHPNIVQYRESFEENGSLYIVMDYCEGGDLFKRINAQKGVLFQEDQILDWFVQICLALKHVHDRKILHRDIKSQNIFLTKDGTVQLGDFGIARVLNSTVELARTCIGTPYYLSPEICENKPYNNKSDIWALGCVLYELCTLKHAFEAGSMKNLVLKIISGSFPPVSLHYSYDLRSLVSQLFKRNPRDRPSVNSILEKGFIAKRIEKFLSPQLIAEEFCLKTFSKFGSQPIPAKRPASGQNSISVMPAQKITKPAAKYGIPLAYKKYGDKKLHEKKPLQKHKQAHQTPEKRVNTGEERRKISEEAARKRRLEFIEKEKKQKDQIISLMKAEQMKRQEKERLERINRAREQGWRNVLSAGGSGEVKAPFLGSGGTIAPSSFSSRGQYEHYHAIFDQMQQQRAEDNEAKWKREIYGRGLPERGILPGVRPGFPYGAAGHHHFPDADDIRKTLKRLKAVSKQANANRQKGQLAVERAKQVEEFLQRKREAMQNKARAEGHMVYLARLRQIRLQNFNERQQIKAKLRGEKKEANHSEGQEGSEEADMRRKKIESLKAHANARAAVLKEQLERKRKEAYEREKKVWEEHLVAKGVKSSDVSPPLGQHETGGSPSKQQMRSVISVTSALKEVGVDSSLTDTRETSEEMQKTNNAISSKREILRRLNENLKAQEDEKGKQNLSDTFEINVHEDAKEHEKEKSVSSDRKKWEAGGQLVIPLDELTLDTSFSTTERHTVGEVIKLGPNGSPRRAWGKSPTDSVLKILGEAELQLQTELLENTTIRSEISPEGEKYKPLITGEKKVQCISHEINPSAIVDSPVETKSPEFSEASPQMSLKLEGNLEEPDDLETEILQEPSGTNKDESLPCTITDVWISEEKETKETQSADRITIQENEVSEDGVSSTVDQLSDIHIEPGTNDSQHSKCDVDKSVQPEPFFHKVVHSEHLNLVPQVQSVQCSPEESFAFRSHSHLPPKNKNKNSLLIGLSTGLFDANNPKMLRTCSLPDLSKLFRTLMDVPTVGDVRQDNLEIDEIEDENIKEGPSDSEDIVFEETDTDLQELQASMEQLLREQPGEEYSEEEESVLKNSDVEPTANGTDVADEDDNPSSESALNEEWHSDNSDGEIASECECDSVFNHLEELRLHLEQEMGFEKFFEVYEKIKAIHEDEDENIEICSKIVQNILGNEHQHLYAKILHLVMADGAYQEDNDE
Counter-ions that a name gives are not always drawn.
observed_property: pIC50
When answering, recall that pIC50 equals minus log10 of the concentration in mol/L, and write that number alone.

Query string: Give the measured pIC50 of C[C@@H]1CN(C(=O)c2ccc(NC(=O)c3cc(O[C@H](C)c4c(Cl)ccc(F)c4Cl)c(N)nn3)cc2)C[C@H](C)N1 [compound of Formula I, hydrochloride] .
Result string: 8.22

---

Assay: Pharmacokinetics in female SD rats, intragastric gavage
Assay type: in vivo
Settings: Sprague-Dawley, rat, PO, 50 mg/kg single dose, plasma
observed_property: AUC(0-t) (ng·h/mL)
Provide the reading as a plain figure in ng·h/mL.

Query string: Give the measured AUC(0-t) of C[C@@H]1CN(C(=O)c2ccc(NC(=O)c3cc(O[C@H](C)c4c(Cl)ccc(F)c4Cl)c(N)nn3)cc2)C[C@H](C)N1 [Crystalline form A] .
Result string: 11600

---

Target: TRKC (Homo sapiens, UniProt Q16288)
Sequence (Q16288 32-839): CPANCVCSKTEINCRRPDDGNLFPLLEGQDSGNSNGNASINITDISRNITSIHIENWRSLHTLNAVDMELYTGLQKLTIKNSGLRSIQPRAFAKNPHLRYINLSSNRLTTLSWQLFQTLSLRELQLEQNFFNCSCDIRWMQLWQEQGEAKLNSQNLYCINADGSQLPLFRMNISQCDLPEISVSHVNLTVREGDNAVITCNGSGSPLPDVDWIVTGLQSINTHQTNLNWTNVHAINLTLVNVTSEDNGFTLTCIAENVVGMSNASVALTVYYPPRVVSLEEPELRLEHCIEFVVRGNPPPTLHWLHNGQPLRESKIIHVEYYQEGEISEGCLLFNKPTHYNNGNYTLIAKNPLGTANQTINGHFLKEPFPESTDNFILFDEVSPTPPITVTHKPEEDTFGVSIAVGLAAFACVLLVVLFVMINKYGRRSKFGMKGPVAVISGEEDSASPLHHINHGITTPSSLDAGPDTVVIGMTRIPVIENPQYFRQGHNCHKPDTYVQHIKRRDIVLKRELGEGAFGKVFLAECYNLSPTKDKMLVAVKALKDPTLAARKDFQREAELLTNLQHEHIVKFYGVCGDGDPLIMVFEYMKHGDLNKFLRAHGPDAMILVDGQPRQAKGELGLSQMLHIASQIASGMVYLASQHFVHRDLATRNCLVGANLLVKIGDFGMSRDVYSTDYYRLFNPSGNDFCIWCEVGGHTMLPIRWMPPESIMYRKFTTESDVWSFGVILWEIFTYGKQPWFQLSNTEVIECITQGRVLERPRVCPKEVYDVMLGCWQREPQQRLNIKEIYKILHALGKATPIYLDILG
Where a name gives a salt, the structure may show the parent alone.
observed_property: IC50 (nM)
Provide the reading as a plain figure in nM.

Query string: TRKC (Homo sapiens, UniProt Q16288) / IC50 / C[C@@H]1CN(C(=O)c2ccc(NC(=O)c3cc(O[C@H](C)c4c(Cl)ccc(F)c4Cl)c(N)nn3)cc2)C[C@H](C)N1 [compound of Formula I, hydrochloride] : value?
Result string: 0.46
